Entry source: patent US9266835B2

# TARGET ENTITY: UniProt:P34972
# Sequence (P34972 whole entry): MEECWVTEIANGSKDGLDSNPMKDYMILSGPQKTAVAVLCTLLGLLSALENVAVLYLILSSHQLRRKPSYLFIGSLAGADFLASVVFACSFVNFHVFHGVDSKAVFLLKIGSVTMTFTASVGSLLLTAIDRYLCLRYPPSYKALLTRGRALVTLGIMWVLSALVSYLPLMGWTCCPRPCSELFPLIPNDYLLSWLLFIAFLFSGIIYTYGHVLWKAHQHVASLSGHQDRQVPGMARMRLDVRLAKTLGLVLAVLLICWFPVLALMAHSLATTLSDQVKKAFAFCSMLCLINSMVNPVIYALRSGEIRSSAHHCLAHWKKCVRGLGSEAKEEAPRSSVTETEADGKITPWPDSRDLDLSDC
# ASSAY PROTOCOL: CB-2 in vitro cAMP assay (HTRF), inverse agonism
# ASSAY CONDITIONS: mean where tested more than once
Can you tell me EC50 for the items I'm about to list?

Sample answers from the record:
Problem: # get_value(readout= EC50, system= UniProt:P34972) for O=c1cc(NC2CCN(S(=O)(=O)C(F)(F)F)CC2)c2cc(C(c3ccc(Cl)cc3)c3ccc(C(F)(F)F)cc3)ccc2[nH]1 (stereo not shown) [Compound 62]
Solution: 3.23 µM

Problem: Then this compound: O=c1cc(NC2CCN(c3ccccc3)CC2)c2cc(C(c3ccc(Cl)cc3)c3ccc(Cl)cc3)ccc2[nH]1 [Compound 60]
Solution: > 10 µM

Problem: Another compound to check: CCOC(=O)CCCNc1cc(C(O)(c2ccc(Cl)cc2)c2ccc(Cl)cc2)cc2c(NC3CCN(S(=O)(=O)C(F)(F)F)CC3)cc(OC(C)(C)C)nc12 [Compound 529]
Solution: > 10 µM

Problem: Note, next up: O=c1cc(NC2CCN(S(=O)(=O)C(F)(F)F)CC2)c2cc(C(c3ccc(O)cc3)c3ccc(Cl)cc3)ccc2[nH]1 (stereo not shown) [Compound #66]
Solution: 7.69 µM

Problem: Let us now turn to CNC(=O)COc1cc(NC2CCN(S(=O)(=O)C(F)(F)F)CC2)c2cc(C(c3ccc(Cl)cc3)c3ccc(Cl)cc3)ccc2n1 [Compound 533]
Solution: > 10 µM

Value sought for every listed compound: EC50.
1. O=c1cc(/C=C/c2ccc(C(F)(F)F)cc2)c2cc(C(c3ccc(Cl)cc3)c3cccs3)ccc2[nH]1 (stereo not shown) [Compound 19]
2. O=c1cc(NC2CCCCC2)c2cc(C(c3ccc(Cl)cc3)c3ccc(Cl)cc3)ccc2[nH]1 [Compound #71]

Solution:
1. > 10 µM
2. > 10 µM
